Each item that follows carries a reported Binding Score.
# testedTarget: MHC-II DRB1*03:01 (Homo sapiens, UniProt P01903+P01911, A100K/A102G/A103R/A169T/F55Y/I96L/K41T/L162R/M171V/P40S/Q125H/Q178H/Q39Y/R42S/S66N/T106N/T262R/W38E/Y61H)
# Sequence (P01903 26-254 limits assumed, other chains not shown): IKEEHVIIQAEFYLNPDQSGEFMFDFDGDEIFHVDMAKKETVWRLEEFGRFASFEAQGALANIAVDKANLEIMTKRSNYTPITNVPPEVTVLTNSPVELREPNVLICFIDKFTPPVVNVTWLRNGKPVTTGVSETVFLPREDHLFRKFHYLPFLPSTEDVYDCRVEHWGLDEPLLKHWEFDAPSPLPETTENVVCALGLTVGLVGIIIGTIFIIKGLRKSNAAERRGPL
# procedureText: Cell-free REVEAL class II binding assay
# recordedConditions: signal of test peptide as percentage of allele-specific positive control peptide, fluorescence, conformation-specific monoclonal antibody
Number first, unit second: that is the form wanted.

Example entries and their recorded answers appear below.
GPTKSDPRCLTRYYS [synthetic wild type FVIII 15 mer peptide]: 4.8%
YTFKHKMVYEDTLTL [synthetic wild type FVIII 15 mer peptide]: 0.8%

### Prompt Look up Binding Score: LSTRQNVEGSYDGAY [synthetic wild type FVIII 15 mer peptide, region of ns-SNP D1241E]
### Response 0.0%

### Prompt Same for AHRTPMPKIQNVSSS [synthetic wild type FVIII 15 mer peptide, region of ns-SNP R776G]
### Response 0.0%

### Prompt Next sequence up: YPHGITDVRPLYSRR [synthetic wild type FVIII 15 mer peptide, region of ns-SNP R484H]
### Response 4.8%
